Provide the reported growth of each item.
- Tested on: HCT-15 colon
- TEST_NAME: NCI-60 one-dose screen, 48 h (100 = growth as untreated, 0 = no growth, -100 = all killed)
- CONDITION_SET: 10 µM unless noted
The panel holds about 83,000 compounds, 20% with a hit somewhere; the sample as a whole holds those more often.
Numbers only, in %.

Example entries begin here.
# COMPOUND, growth (%)
measured = [
    ("COc1cc(C(=O)Nc2cc3c(cc2Oc2cc(C)cc(C)c2)C(=O)N(C)[C@@H](CC(=O)N(C)O)C(=O)N3)c(Br)c(OC)c1OC", -16.2),
    ("CCOC(=O)c1cc(C(=O)c2ccc(Br)cc2)n2ccc(/C=C/c3cc[n+](CC(=O)c4ccc(OC)cc4)cc3)cc12", 70.7),
    ("O=C1c2ccccc2CCC12OC2c1cn(-c2ccccc2)nc1-c1ccc(Cl)cc1 (configuration not stated)", 41.4),
]

List the reported growth of each compound below.
1. C[C@H](c1nc2ccc(N)cc2[nH]1)[C@H]1CC[C@H]2[C@@H]3CCC4=CC(=O)CC[C@]4(C)[C@H]3CC[C@]12C
2. C[C@H]1[C@H](C)CC[C@]2(C(=O)NCC#CCN3CCN(C)CC3)CC[C@]3(C)C(=CC[C@@H]4[C@@]5(C)Cc6c([nH]c7ccccc67)C(C)(C)[C@@H]5CC[C@]43C)[C@H]12
3. Cn1c(N2NC(=O)C(N=Nc3ccc(S(N)(=O)=O)cc3)C2=O)nc(-c2ccco2)c(C#N)c1=O (configuration not stated)
4. N#C/C(=C\c1c(-c2ccccc2)[nH]c2ccccc12)C(=O)c1ccc(Cl)cc1
5. CCc1ccc(CNc2ccc(N3CCOCC3)c(C(=O)O)c2)cc1
6. Cc1ccc(-c2[nH][nH]c(=O)c2-c2nc3ccccc3s2)cc1
7. CCOC(=O)c1cc(C(=O)c2cc(OC)cc(OC)c2)n2ccc3ccccc3c12
8. C/C(=N\NC(=O)CSc1nc2ccccc2c(=O)n1Cc1ccc(S(N)(=O)=O)cc1)c1ccc(F)cc1

67.8
47
61.7
31.1
104
99.1
100
96.9

* * *

- System: LOX IMVI melanoma
- TEST_NAME: NCI-60 one-dose screen, 48 h
- CONDITION_SET: 10 µM unless noted
- Procedure: Growth inhibition of the LOX IMVI human tumor cell line is measured as a screen for anti-cancer activity. Cells are grown in 96 well plates and exposed to the test compound for 48 hours. Compounds are tested at a single concentration, which is 10^-5 M for most compounds. The reported endpoint is percent growth (GI% or GIPRCNT), where numbers from 0 - 100% represent growth inhibition, and numbers from -100% - 0 represent cell death. For example, a value of 40 represents 60% growth inhibition. […]
The panel holds about 83,000 compounds, 20% with a hit somewhere; the sample as a whole holds those more often. Calls of active or inactive are those of the source. How the source made its calls: active means growth percent below 10; inactive means the rest.
Outcome field: choose from active, inactive

# MOLECULE, GROUP
measured = [
    ("O=C(c1nc2ccccc2[nH]1)C1C(c2ccc(Br)cc2)C2CC3CCCC[C@H]3N2[C@@]12C(=O)Nc1cc(Cl)ccc12 (stereo partly drawn)", "inactive"),
    ("O=S(=O)(NCCCNc1nccc(-c2c(-c3cccc(O)c3)nc3occn23)n1)c1ccc(Cl)cc1", "inactive"),
    ("O=C1c2cccc3c(-c4ccc5c(c4)ncn5C4CCCCC4)ccc(c23)C(=O)N1c1nc2ccccc2s1", "inactive"),
    ("Cc1nnc2c(Cc3ccccc3)nc3ccccc3n12", "inactive"),
    ("C[C@H]1[C@H](C)CC[C@]2(C(=O)NCC#CCN3CCN(C)CC3)CC[C@]3(C)C(=CC[C@@H]4[C@@]5(C)Cc6c([nH]c7ccccc67)C(C)(C)[C@@H]5CC[C@]43C)[C@H]12", "inactive"),
]

Please look at the following molecule next.
Recorded call for `N#CC(C#N)=Cc1cc2ccccc2nc1Oc1ccc(C(F)(F)F)cc1` ?
inactive

* * *

- System: UACC-257 melanoma
- TEST_NAME: NCI-60 one-dose screen, 48 h (100 = growth as untreated, 0 = no growth, -100 = all killed)
- CONDITION_SET: 10 µM unless noted
About 83,000 compounds went through this panel and 20% of them were active in at least one assay; those are over-represented in the sample as a whole.
Provide the reported growth of each item.
Answers are plain numbers, in %.

Example entries begin here.
# MOLECULE, growth, %
data = [
    ("Cc1nnc2c(Cc3ccccc3)nc3ccccc3n12", 104),
    ("COc1cc(NC(=O)CSc2nc3ccc(C)cc3c(=O)n2Cc2ccccc2)cc(OC)c1OC", 61.3),
    ("O=C(/C=C(/C=C/c1coc2ccccc12)OB(F)F)/C=C/c1coc2ccccc12", 92.3),
    ("Fc1ccc2c(-c3cncn3CCc3ccccc3)c[nH]c2c1", 94.6),
    ("O=C(Nc1ccc(F)cc1)Nc1ccc(NC(=O)c2cc(Cl)nc3ccccc23)cc1", 79.8),
]

List the reported growth of each molecule below.
1. Cn1ccnc1C(=O)/C=C/c1ccc(CC(=O)Nc2ccc(F)cc2)cc1
2. Cn1cc(-c2nc(-c3c[nH]c4c(Cl)nccc34)cs2)c2cc(F)ccc21
3. COc1cccc(-c2ccc3c(c2)NC(=O)/C3=C\c2ccc[nH]2)c1
4. Cc1nc2ccc(Cl)cn2c1-c1nnc(SCc2ccc([N+](=O)[O-])cc2)o1

[85.3, 70.2, 77, 61.3]

For the molecule COc1cc(C2C3CC4CCCC[C@H]4N3[C@@]3(C(=O)Nc4cc(Cl)ccc43)C2C(=O)c2nc3ccccc3[nH]2)cc(OC)c1OC (stereo not given in full) , give its measured growth value.
61.6

* * *

- Test system: SK-OV-3 ovarian
- TEST_NAME: NCI-60 one-dose screen, 48 h (100 = growth as untreated, 0 = no growth, -100 = all killed)
- CONDITION_SET: 10 µM unless noted
About 83,000 compounds went through this panel and 20% of them were active in at least one assay; those are over-represented in the sample as a whole. Active and inactive are the calls of the source. The calls were made as follows: active = growth percent below 10; inactive = the rest.
READOUT_NAME: growth

# MOLECULE, SYSTEM_NAME, READOUT_NAME, VALUE_MEASURED
records = [
    ("O=C(/C=C/c1ccc(F)cc1)c1ccc(NC(=O)N2CCN(c3cc4c(cc3F)c(=O)c(C(=O)O)cn4C3CC3)CC2)cc1", "SK-OV-3 ovarian", "growth", "99.4% (inactive)"),
]

List the reported growth of each molecule below.
1. Cc1c(C(=O)NCCC(=O)NO)sc2ncnc(Nc3ccc(F)c(Cl)c3)c12
2. N#CC1=C(N)Oc2c(ccc3ccccc23)C1c1ccccc1Cl (centres undefined)
3. COc1ccccc1NS(=O)(=O)c1cccc(C(=O)Nc2ccc(Br)cc2)c1
4. CCOC(=O)C1=C(C)NC(SCc2cc(=O)oc3ccc(F)cc23)=N[C@@H]1c1cccc2ccccc12

1. 129% (inactive)
2. 59.3% (inactive)
3. 44.1% (inactive)
4. 92.5% (inactive)

List the reported growth of each molecule below.
1. CCc1c2c(nc3ccc(OCc4ccc(B(O)O)cc4)cc13)-c1cc3c(c(=O)n1C2)COC(=O)[C@]3(O)CC
2. O=c1c2c(c(=O)n1O)c1c3ccc[nH]c3nc1c1nc3[nH]cccc3c12
3. Fc1ccc(-c2cn3c(nc4ccccc43)c(-c3ccccc3)n2)cc1
4. NC1[C@H](c2c[nH]c3ccccc23)c2c([nH]c3ccccc23)[C@H]1c1c[nH]c2ccccc12 (some centres undefined)

1: -4.91% (active); 2: 89.2% (inactive); 3: 105% (inactive); 4: 115% (inactive)

* * *

- System: CAKI-1 renal
- TEST_NAME: NCI-60 one-dose screen, 48 h (100 = growth as untreated, 0 = no growth, -100 = all killed)
- CONDITION_SET: 10 µM unless noted
Compounds without any hit were thinned out: in the full panel of roughly 83,000, 20% have a hit.
Could you please mark Satisfied for values of growth below 90% and Not satisfied for values at or above it?

As a guide, the following entries are already answered.
# SUBSTANCE_SMILES, GROUP
records = [
    ("O=C1Nc2ccccc2/C1=C\\c1c(-c2ccccc2)nc2ccccn12", "Satisfied"),
    ("COc1ccc(/C=C2\\COc3ccc(-c4ccccc4)cc3C2=O)c(OC)c1", "Not satisfied"),
    ("OCc1cnccc1NCCCOc1ccccc1", "Not satisfied"),
]

Please look at the following compound next.
For this compound, is growth lower than 90%? `COc1ccc(/C=C/C(=O)Nc2cc(/C=C\c3cc(OC)c(OC)c(OC)c3)cc(OC)c2OC)cc1OC`
Satisfied

* * *

- Tested on: EKVX NSCLC
- TEST_NAME: NCI-60 one-dose screen, 48 h
- CONDITION_SET: 10 µM unless noted
The panel holds about 83,000 compounds, 20% with a hit somewhere; the sample as a whole holds those more often. Calls of active or inactive are those of the source. Rule for the calls: active = growth percent below 10; inactive = the rest.
Outcome field: choose from 1 (active), 0 (inactive)

As a guide, the following entries are already answered.
# COMPOUND, GROUP
data = [
    ("COC(=O)C1=C(C(=O)ON)[C@@H]2C=C[C@@]1([C@@H](Cc1ccccc1)Nc1ccccc1)O2", 0),
    ("NC(=NCc1ccccc1)C(N=Nc1ccccc1)C(=O)NCc1ccccc1 (configuration not stated)", 0),
    ("COc1cc2nc(-c3ccc(Cl)cc3)cc(OCCCN3CCCCC3)c2cc1OC", 0),
    ("COc1ccc(OC)c(CCn2cncc2-c2c[nH]c3ccccc23)c1", 0),
    ("COc1ccc(C(=O)c2nc3ccccc3n2CC(=O)c2ccc(Cl)cc2)cc1", 0),
    ("Nc1c(C(=O)Nc2cccc3cnccc23)sc2nc3c(cc12)C(=O)CCC3", 0),
    ("C=C1C(=O)O[C@H]2[C@H]1CC/C(COC(=O)NCc1c[nH]c3ccc(Cl)cc13)=C\\CC[C@@]1(C)O[C@@H]21", 1),
    ("Cc1cccc(NC(=O)Nc2ccc(-n3cnc4cc(-c5ccc(O)cc5)ccc43)cc2)c1", 0),
]

Recorded call for `N#Cc1c(-c2cccc([N+](=O)[O-])c2)nc(SCC(=O)c2ccc(Cl)cc2)[nH]c1=O` ?
0

Recorded call for COc1ccc(/C=N/NC(=O)c2cnn3c2NC(c2ccccc2)C3)cc1OC (configuration not stated) ?
0

Recorded call for `COc1ccc2c(c1)oc1c(C)c3c(c(C)c12)C(=O)N(CCN1CCOCC1)C3=O` ?
0

Recorded call for `Cc1ccccc1NS(=O)(=O)c1cccc(C(=O)Nc2ccc(Br)cc2)c1` ?
0

Recorded call for `CCCCCCOc1ccc(/C=N/Nc2cc(C)nc3ccc(Cl)cc23)cc1` ?
0

Recorded call for `COc1ccc(C(=O)Cn2c(C(=O)c3ccccc3)nc3ccccc32)cc1` ?
0

Recorded call for `COc1ccccc1NS(=O)(=O)c1cccc(C(=O)Nc2ccc(Br)cc2)c1` ?
0

Recorded call for `O=C(Nc1ccccc1)Nc1ccc2cc3ccc(NC(=O)Nc4ccccc4)cc3nc2c1` ?
0

Recorded call for COc1cc(C2=NN(C(C)=O)C(c3cc(OC)c(OC)c(OC)c3)C2)ccc1O (configuration not stated) ?
0

Recorded call for `O=Cc1cc2ccccc2nc1Oc1ccc(C(F)(F)F)cc1` ?
0

The values you see were collected from PubChem BioAssay (NCI).
